# procedure-summary: Aqueous stability at biorelevant pH values, 37 °C (UHPLC-DAD)
# Format: physicochemical
# condition-description: sodium phosphate buffer; pH 6.8, 37 °C, first-order; read-out: half-life t1/2 (converted)
# Description: For the analysis of the samples from the chemical stability as well as the PAMPA studies, sample concentrations were determined using our previously developed ultrahigh-performance liquid chromatography–diode array detection (UHPLC-DAD) method validated for linearity, precision and accuracy. […]
property: half-life at 100 µM (days)

>>> df
                                   compound             property  numeric_readout
0  O=C1CCc2ccc(O)c(c2)-c2cc(ccc2O)C[C@@H](O)[C@H](O)C1 [Compound 3, giffonin X]  half-life at 100 µM             34.5
1  O=C1CCC(=O)C(O)Cc2ccc(O)c(c2)-c2cc(ccc2O)C1 (stereo not drawn) [Compound 4]  half-life at 100 µM             20.3
2  O=C1C[C@H](O)[C@@H](O)Cc2ccc(O)c(c2)-c2cc(ccc2O)C[C@H]1O [Compound 1, carpinontriol A]  half-life at 100 µM              7.9
